These entries and their values trace back to PubChem BioAssay (NCI).

Tested on: HOP-62 NSCLC
Assay: NCI-60 one-dose screen, 48 h (100 = growth as untreated, 0 = no growth, -100 = all killed)
Settings: 10 µM unless noted
About 83,000 compounds went through this panel and 20% of them were active in at least one assay; those are over-represented in the sample as a whole.
Entries are sorted into classes by growth as follows: low = under 60%, medium = from 60% up to 90%, high = 90% and over

COMPOUND | DISCRETE_LABEL
COc1ccc(C2CC(c3ccc(Nc4nc(NCCO)nc(N5CCOCC5)n4)cc3)=Nc3c(N)nc(N)nc3N2)cc1 (centres undefined) | high
Cc1nc(-c2ccccc2O)ccc1C(=O)N=Nc1c(O)[nH]c2ccc(Br)cc12 | medium
C=C(C)[C@@H]1CC[C@]2(COP(=O)(OCC)OCC)CC[C@]3(C)[C@H](CC[C@@H]4[C@@]5(C)CCCNC(C)(C)[C@@H]5CC[C@]43C)[C@@H]12 | medium
CC1(C)[C@@H](O)CC[C@]2(C)[C@H]3CC[C@@H]4[C@H]5[C@H](C(=O)/C=C\c6ccccn6)CC[C@]5(O)CC[C@@]4(C)[C@]3(C)CC[C@@H]12 | medium
N#Cc1ccccc1Cn1c2nc(=N)c3ccccc3c-2nc2ccccc21 | medium
CC1(C)CC[C@]2(C(=O)N3CCOCC3)CC[C@]3(C)C(=CC[C@@H]4[C@@]5(C)C/C(=C/c6ccccn6)C(=O)C(C)(C)[C@@H]5CC[C@]43C)[C@@H]2C1 | medium
CN1CCN(Cc2ccc(NC(=O)c3cncc(C#Cc4cnc5ccc(N6CCN(C)CC6)nn45)c3)cc2C(F)(F)F)CC1 | low
Cc1ccc(NC(=O)N[C@@H](Cc2cc(F)cc(F)c2)C(=O)NC2C(=O)N3C[C@H](O)C[C@H]3C(=O)N3CCCC[C@H]3C(=O)N[C@@H](CO)C(=O)N3C[C@H](C)C[C@H]3C(=O)O[C@H]2C)c(F)c1 (some centres undefined) | low
CC1(C)CC[C@]2(CN)CC[C@]3(C)C(=CC[C@@H]4[C@@]5(C)CCCNC(C)(C)[C@@H]5CC[C@]43C)[C@H]2C1 | high
CC1(C)[C@@H](O)CC[C@]2(C)[C@H]3CC[C@@H]4[C@H]5[C@H](C(=O)/C=C\c6ccc([N+](=O)[O-])cc6)CC[C@]5(O)CC[C@@]4(C)[C@]3(C)CC[C@@H]12 | medium
Cc1cc(-c2ccc(Cl)cc2)n(Cc2nnc(SCC(=O)Nc3ccc(S(N)(=O)=O)cc3)n2C2CCCCC2)n1 | high
O=C(Nc1cccc(Cl)c1)Nc1nc2ccc([N+](=O)[O-])cc2o1 | low
CC1(C)CC[C@]2(C(=O)O)CC[C@]3(C)C(=CC[C@@H]4[C@@]5(C)CC/C(=N\OCCC#N)C(C)(C)[C@@H]5CC[C@]43C)[C@@H]2C1 | medium

====

Catalogue of growth readings, one per entry.
Tested on: KM12 colon
Experiment: NCI-60 one-dose screen, 48 h (100 = growth as untreated, 0 = no growth, -100 = all killed)
Conditions: 10 µM unless noted
The panel holds about 83,000 compounds, 20% with a hit somewhere; the sample as a whole holds those more often.

COMPOUND | TARGET_ENTITY | growth / %
Cc1ccc(C2=NN(C)C(=O)C3(CCCC3)C2)cc1 | KM12 colon | 104
CNC(=O)c1cc(Oc2ccc3nc(NC(=O)c4cccc(OC(F)(F)F)c4)sc3c2)ccn1 | KM12 colon | 85.6
Nc1nc(Nc2ccccc2SSc2ccccc2Nc2nc(N)nc(-c3ccccc3)n2)nc(-c2ccccc2)n1 | KM12 colon | 22.1
CCCCCc1ccc(S(=O)(=O)Nc2cccc(-c3csc(NC(=O)CNCCN(C)C)n3)c2)cc1 | KM12 colon | 90.2
COc1ccc(S(=O)(=O)NCCCNc2nccc(-c3cn(C(C)(C)C)nc3-c3ccc(Cl)c(OC)c3)n2)cc1 | KM12 colon | 93
CCc1cccc2c3c(sc12)C(c1ccc(Cl)cc1)C(C#N)=C(/N=C/c1ccc(Cl)cc1)O3 (centres undefined) | KM12 colon | 13.2
Oc1[nH]c2ccccc2c1Nn1c(N=N/C=c2/ccc3c(c2)C=NN=3)n[nH]c1=S | KM12 colon | 93.3
O=C(CCn1c[n+](CC(=O)c2ccc(-c3ccccc3)cc2)c2ccccc21)Nc1cccc2cccnc12 | KM12 colon | 14.5
CC1(C)NCCC[C@]2(C)[C@H]3C/C(=N\O)C4[C@@H]5C[C@@](C)(CO)CC[C@]5(C)CC[C@@]4(C)[C@]3(C)CC[C@@H]12 (some centres undefined) | KM12 colon | 104

====

Catalogue of growth readings, one per entry.
System: SF-268 CNS
Test: NCI-60 one-dose screen, 48 h (100 = growth as untreated, 0 = no growth, -100 = all killed)
Conditions: 10 µM unless noted
Experimental: Cells are grown in 96 well plates and exposed to the test compound for 48 hours. Compounds are tested at a single concentration, which is 10^-5 M for most compounds. The reported endpoint is percent growth (GI% or GIPRCNT), where numbers from 0 - 100% represent growth inhibition, and numbers from -100% - 0 represent cell death. For example, a value of 40 represents 60% growth inhibition. A value of 0 means no net growth occurred over the course of the experiment. […]
Compounds without any hit were thinned out: in the full panel of roughly 83,000, 20% have a hit. Calls of active or inactive are those of the source. The calls were made as follows: active = growth percent below 10; inactive = the rest.

COMPOUND | growth
COc1cc(-c2ccc3ncnc(NCc4ccccc4)c3c2)cnc1OC | 46.5% (inactive)
Cc1ccc(-c2nnc(SCc3ccc(O)c4ncccc34)o2)cc1 | 21.2% (inactive)
COc1ccc(C2CC(c3cccc(Nc4nc(Cl)nc5cc(OC)c(OC)cc45)c3)=Nc3c(N)nc(N)nc3N2)cc1 (stereo not drawn) | 86.5% (inactive)
NC(N)=Nc1ccc(Oc2cccc(Nc3ccc(Br)c(C(F)(F)F)c3)c2)cc1 | 25.3% (inactive)
CCOc1ccc(C(=O)Nc2ncc(Cc3ccc(F)cc3)s2)cc1 | 53.6% (inactive)
O=C1/C(=C/C=C/c2ccco2)SC(=S)N1C1CCCCC1 | 109% (inactive)
CCO/C=N/C1=C(C#N)C(c2ccc(F)cc2)c2sc3c(CC)cccc3c2O1 (stereo not drawn) | 47.5% (inactive)
Cc1cc2nc(C(Cl)Cl)nc(-c3cccs3)n2n1 | 28.9% (inactive)
CCNC(=O)N1CCc2cc(OC)c(OCCc3ccc(OC)cc3)cc2C1c1ccc([N+](=O)[O-])cc1C (stereo not drawn) | 32% (inactive)
CCOC(=O)c1c(Nc2ccccc2)nn2c(-c3ccccc3)ccnc12 | 113% (inactive)
CCC(NC(c1cc2cccc3ccc4cccc1c4c32)c1nnnn1C(C)(C)C)C1CCCCC1 (stereo not drawn) | 74.6% (inactive)
COc1c(N2CC3CCCNC3C2)c(F)cc2c(=O)c(C(=O)N/N=C/c3ccc(N(C)C)cc3)cn(C3CC3)c12 (stereo not drawn) | 85.5% (inactive)
Cc1cccc2c3c(sc12)C(c1ccc(Cl)cc1)c1c(nc(CC(=O)Nc2ccccc2)[nH]c1=O)O3 (stereo not drawn) | 66.7% (inactive)
CC1(C)CC[C@]2(C(=O)N3CCOCC3)CC[C@]3(C)C(=CC[C@@H]4[C@@]5(C)C/C(=C/c6ccco6)C(=O)C(C)(C)[C@@H]5CC[C@]43C)[C@@H]2C1 | 63.1% (inactive)
CC[C@@H](CO)Nc1ccc2ncc(C#Cc3cncc(C(=O)Nc4ccc(CN5CCN(C)CC5)c(C(F)(F)F)c4)c3)n2n1 | -60.4% (active)
Cn1cc(-c2nnc(N)nc2-c2c[nH]c3ccc(F)cc23)c2cc(F)ccc21 | 74.4% (inactive)
C=CCn1c(SCC(=O)Nc2ccc(C(=O)/C=C/c3cc(OC)c(OC)c(OC)c3)cc2)nnc1-c1c[nH]c2ccccc12 | 33.1% (inactive)
N#Cc1cccc(NC(=O)c2cc(-c3ccc(F)cc3F)ccc2O)c1 | 18.7% (inactive)
N#Cc1cccc(CN2CCc3ncn(Cc4ccc(Cl)cc4)c(=O)c3C2)c1 | 27.2% (inactive)
CCCCCc1ccc(S(=O)(=O)Nc2cc(-c3csc(NC(=O)CN4CCN(C)CC4)n3)ccc2OC)cc1 | -24.5% (active)
COc1ccc(/C(N)=N/C(N)=N/c2nc3ccccc3s2)cc1 | 78.9% (inactive)
COc1ccc(-c2nc3cccc(O)c3c(=O)n2Cc2ccccc2)cc1COc1ccc(NC(C)=O)cc1 | 58.2% [3 µM] (inactive)
O=C(CSc1nc2ccccc2c(=O)n1-c1ccccc1)Nc1cccc(C(=O)/C=C/c2ccccc2Cl)c1 | 101% (inactive)
Cc1ccc(-n2cc(/C=N/NC(=O)c3ccncc3)c(-c3ccc(S(C)(=O)=O)cc3)n2)cc1 | 100% (inactive)
C=CCOc1cccc(/C=C2\SC(=S)N(C3CC(=O)N(c4ccc(Br)cc4)C3=O)C2=O)c1 (stereo not drawn) | 103% (inactive)
C=C(C=O)[C@@H]1CC[C@]2(CO)CC[C@]3(C)[C@H](CC[C@@H]4[C@@]5(C)CCCNC(C)(C)[C@@H]5CC[C@]43C)[C@@H]12 | 83.9% (inactive)
Oc1cccc2ccc(-c3nnc(SCc4ccc(O)c5ncccc45)n3-c3ccccc3)nc12 | 22.8% (inactive)
COc1cc2nc(Cl)nc(Nc3cccc(C4=Nc5c(N)nc(N)nc5NC(c5ccc(Br)cc5)C4)c3)c2cc1OC (stereo not drawn) | 84.4% (inactive)
Cc1cccc(/C=C/C(=O)Nc2ncc(Cc3cccc(C)c3)s2)c1 | 48.2% (inactive)
COc1ccc([C@H]2[C@H](O)C(=O)N2c2cc(OC)c(OC)c(OC)c2)cc1F | 37.4% (inactive)
O=C(Nc1nonc1-c1ccccc1)c1ccc(C(F)(F)F)cc1 | 81.6% (inactive)
COc1cc2c(cc1OC)C(Sc1ccc(C)cc1)c1c(nc(N)c(C#N)c1N)O2 (stereo not drawn) | -54.5% (active)
Cc1ccc(C2=Nn3c(nnc3-c3ccccc3)SC2)cc1 | 49.5% (inactive)
COc1ccc(C(=O)Nc2ncc(Cc3ccccc3Cl)s2)cc1 | 43.3% (inactive)
O=C(NNc1nc2cc(F)cc(F)c2n2cccc12)c1cnccn1 | 21.9% (inactive)
NC(N)=Nc1ccc(Oc2cccc(Nc3ccc(Cl)c(C(F)(F)F)c3)c2)cc1 | 32.8% (inactive)
O=C(O)c1cn(C2CC2)c2cc(N3CCN(C(=O)CN4C(=O)CSC4=O)CC3)c(F)cc2c1=O | 83.5% (inactive)
Cc1cc(C)c2sc(=O)n(Cc3nnc(SCCC(=O)O)o3)c2n1 | 99.2% (inactive)
